Hi there, I'd appreciate the recorded Minimum inhibitory concentration for every entry that follows.
# Tested on: Pseudomonas aeruginosa ATCC 27853
# Format: cell-based
# particulars: ATCC 27853
# Protocol: MICs of the lipopeptides (trifluoroacetic acid salt, TFA) were determined by broth microdilution in cation-adjusted Mueller-Hinton broth (CAMHB) (Oxoid Australia, Thebarton, SA, Australia) according to the Clinical and Laboratory Standards Institute protocol (Clinical and Laboratory Standards Institute, Performance standards for antimicrobial susceptibility testing; twentyforth informational supplement M100-S24. Wayne, Pa., 2014). Polymyxin B sulphate was employed as the control. […]
Where a SMILES comes first, the peptide text is derived from it. Bridges are numbered along the chain shown (N, C = ends). [ ]: non-standard residue; d: D form. The star is where a group is joined. Quinaldoyl = O=C(c1ccc2ccccc2n1)*; X58 = Cn1cc(CC(=O)*)c2ccccc21; X33 = O=C(c1cncc(Br)c1)*; Dab = NCC[C@H](N)C(=O)O; Abu = CC[C@H](N)C(=O)O; Dap = NC[C@H](N)C(=O)O
One number for each entry, in µg/mL.

# example entries with known answers
{"compound": "CC[C@@H]1NC(=O)[C@@H](CC(C)C)NC(=O)[C@H](CCN)NC(=O)[C@@H](NC(=O)[C@H](CN)NC(=O)[C@@H](NC(=O)[C@H](CCN)NC(=O)Cc2cn(C)c3ccccc23)[C@@H](C)O)CCNC(=O)[C@H]([C@@H](C)O)NC(=O)[C@H](CCN)NC(=O)[C@H](CCN)NC1=O [Compound 62] (X58-[Dab]T[Dap][Dab][Dab][dL][Abu][Dab][Dab]T; lactam 4-C)", "experimental endpoint": "Minimum inhibitory concentration", "experimental result": 0.5}
{"compound": "CC[C@@H]1NC(=O)[C@@H](CC(C)C)NC(=O)[C@H](CCN)NC(=O)[C@@H](NC(=O)[C@H](CN)NC(=O)[C@@H](NC(=O)[C@H](CCN)NC(=O)c2ccc3ccccc3n2)[C@@H](C)O)CCNC(=O)[C@H]([C@@H](C)O)NC(=O)[C@H](CCN)NC(=O)[C@H](CCN)NC1=O [Compound 55] (Quinaldoyl-[Dab]T[Dap][Dab][Dab][dL][Abu][Dab][Dab]T; lactam 4-C)", "experimental endpoint": "Minimum inhibitory concentration", "experimental result": 0.25}

Here is another compound to look at.
Asked: What value of Minimum inhibitory concentration has been recorded for this entry: CC[C@@H]1NC(=O)[C@@H](CC(C)C)NC(=O)[C@H](CCN)NC(=O)[C@@H](NC(=O)[C@H](CN)NC(=O)[C@@H](NC(=O)[C@H](CCN)NC(=O)c2cncc(Br)c2)[C@@H](C)O)CCNC(=O)[C@H]([C@@H](C)O)NC(=O)[C@H](CCN)NC(=O)[C@H](CCN)NC1=O [Compound 23] (X33-[Dab]T[Dap][Dab][Dab][dL][Abu][Dab][Dab]T; lactam 4-C)
Given back: 0.25

----------
Hi there, I'd appreciate the recorded Minimum inhibitory concentration for every entry that follows.
# Test system: Klebsiella pneumoniae Kp BM1
# Type: cell-based
# particulars: Kp BM1
Where a SMILES comes first, the peptide text is derived from it. Bridges are numbered along the chain shown (N, C = ends). [ ]: non-standard residue; d: D form. The star is where a group is joined. X45 = O=C(c1cc(C(F)(F)F)ccn1)*; X11 = Cn1nc(C(=O)*)c2ccccc21; X42 = O=C(c1nc2ccccc2[nH]1)*; X39 = O=C(c1noc2ccccc12)*; X67 = O=C(c1cc(Br)sc1Br)*; Dab = NCC[C@H](N)C(=O)O; Abu = CC[C@H](N)C(=O)O; Dap = NC[C@H](N)C(=O)O; X53 = O=C(c1ccncc1Cl)*

# example entries with known answers
{"molecule": "CC[C@@H]1NC(=O)[C@@H](CC(C)C)NC(=O)[C@H](CCN)NC(=O)[C@@H](NC(=O)[C@H](CN)NC(=O)[C@@H](NC(=O)[C@H](CCN)NC(=O)c2noc3ccccc23)[C@@H](C)O)CCNC(=O)[C@H]([C@@H](C)O)NC(=O)[C@H](CCN)NC(=O)[C@H](CCN)NC1=O [Compound 75] (X39-[Dab]T[Dap][Dab][Dab][dL][Abu][Dab][Dab]T; lactam 4-C)", "Minimum inhibitory concentration": "0.25 mg/L"}
{"molecule": "CC[C@@H]1NC(=O)[C@@H](CC(C)C)NC(=O)[C@H](CCN)NC(=O)[C@@H](NC(=O)[C@H](CN)NC(=O)[C@@H](NC(=O)[C@H](CCN)NC(=O)c2cc(C(F)(F)F)ccn2)[C@@H](C)O)CCNC(=O)[C@H]([C@@H](C)O)NC(=O)[C@H](CCN)NC(=O)[C@H](CCN)NC1=O [Compound 21] (X45-[Dab]T[Dap][Dab][Dab][dL][Abu][Dab][Dab]T; lactam 4-C)", "Minimum inhibitory concentration": "<0.125 mg/L"}

Go through the items and report each one's Minimum inhibitory concentration.
1. CC[C@@H]1NC(=O)[C@@H](CC(C)C)NC(=O)[C@H](CCN)NC(=O)[C@@H](NC(=O)[C@H](CN)NC(=O)[C@@H](NC(=O)[C@H](CCN)NC(=O)c2nc3ccccc3[nH]2)[C@@H](C)O)CCNC(=O)[C@H]([C@@H](C)O)NC(=O)[C@H](CCN)NC(=O)[C@H](CCN)NC1=O [Compound 47] (X42-[Dab]T[Dap][Dab][Dab][dL][Abu][Dab][Dab]T; lactam 4-C)
2. CC[C@@H]1NC(=O)[C@@H](CC(C)C)NC(=O)[C@H](CCN)NC(=O)[C@@H](NC(=O)[C@H](CN)NC(=O)[C@@H](NC(=O)[C@H](CCN)NC(=O)c2cc(Br)sc2Br)[C@@H](C)O)CCNC(=O)[C@H]([C@@H](C)O)NC(=O)[C@H](CCN)NC(=O)[C@H](CCN)NC1=O [Compound 76] (X67-[Dab]T[Dap][Dab][Dab][dL][Abu][Dab][Dab]T; lactam 4-C)
3. CC[C@@H]1NC(=O)[C@@H](CC(C)C)NC(=O)[C@H](CCN)NC(=O)[C@@H](NC(=O)[C@H](CN)NC(=O)[C@@H](NC(=O)[C@H](CCN)NC(=O)c2ccncc2Cl)[C@@H](C)O)CCNC(=O)[C@H]([C@@H](C)O)NC(=O)[C@H](CCN)NC(=O)[C@H](CCN)NC1=O [Compound 34] (X53-[Dab]T[Dap][Dab][Dab][dL][Abu][Dab][Dab]T; lactam 4-C)
4. CC[C@@H]1NC(=O)[C@@H](CC(C)C)NC(=O)[C@H](CCN)NC(=O)[C@@H](NC(=O)[C@H](CN)NC(=O)[C@@H](NC(=O)[C@H](CCN)NC(=O)c2nn(C)c3ccccc23)[C@@H](C)O)CCNC(=O)[C@H]([C@@H](C)O)NC(=O)[C@H](CCN)NC(=O)[C@H](CCN)NC1=O [Compound 51] (X11-[Dab]T[Dap][Dab][Dab][dL][Abu][Dab][Dab]T; lactam 4-C)

Given back:
["0.25 mg/L", "<0.125 mg/L", "1 mg/L", "<0.125 mg/L"]

Reference source: patent US11225505B2
